- Tested on: MPNST complex spheroid with HUVEC/MSC, growth, % test/control
- method_summary: Anticancer human tumor MPNST cell line growth inhibition [Asc];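 further: compounds left on spheroids for seven days before reading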
- study_conditions: second compound 0.316 µM; first compound 0.00316 µM; stronger effect = lower value
Reported viability, T/C values for the following compounds.
Kindly provide the numeric value in % only, without the unit symbol.

Study these solved cases before continuing.
- Cn1ncnc1[C@H]1c2n[nH]c(=O)c3cc(F)cc(c23)N[C@@H]1c1ccc(F)cc1 + Cc1c(S(C)(=O)=O)c(-c2cc(F)cc(N3CCN(c4ccc(NS(=O)(=O)c5ccc(NC(CCN6CCC(C(=O)OCCCP(=O)(O)O)CC6)CSc6ccccc6)c(S(=O)(=O)C(F)(F)F)c5)cc4)CC3)c2)c(-c2ccc(Cl)cc2)n1C(C)C: 80.4
- O=C(c1ccc(F)c(F)c1Nc1ccc(I)cc1F)N1CC(O)([C@@H]2CCCCN2)C1 + Cc1c(S(C)(=O)=O)c(-c2cc(F)cc(N3CCN(c4ccc(NS(=O)(=O)c5ccc(NC(CCN6CCC(C(=O)OCCCP(=O)(O)O)CC6)CSc6ccccc6)c(S(=O)(=O)C(F)(F)F)c5)cc4)CC3)c2)c(-c2ccc(Cl)cc2)n1C(C)C: 83

Tell me viability, T/C of NC1CCC(NC2CC2c2ccccc2)CC1 (stereo unspecified) + CNC(C)C(=O)NC1CN(S(=O)(=O)c2cccc(S(=O)(=O)N3CCC4CCC(C(=O)NC(c5ccccc5)c5ccccc5)N4C(=O)C(NC(=O)C(C)NC)C3)c2)CCC2CCC(C(=O)NC(c3ccccc3)c3ccccc3)N2C1=O when tested on MPNST complex spheroid with HUVEC/MSC, growth, % test/control.
69.3

----------
Reported viability, T/C values for the following compounds.
- Test system: MPNST complex spheroid with HUVEC/MSC, growth, % test/control
- method_summary: Anticancer human tumor MPNST cell line growth inhibition [Asc];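 further: compounds left on spheroids for seven days before reading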
- study_conditions: second compound 1 µM; first compound 0.0316 µM; stronger effect = lower value
Kindly provide the numeric value in % only, without the unit symbol.

Study these solved cases before continuing.
• C=CC(=O)N1CCN(c2nc(=O)n(-c3c(C)ccnc3C(C)C)c3nc(-c4c(O)cccc4F)c(F)cc23)C(C)C1 (stereo not drawn) + Cc1c(S(C)(=O)=O)c(-c2cc(F)cc(N3CCN(c4ccc(NS(=O)(=O)c5ccc(NC(CCN6CCC(C(=O)OCCCP(=O)(O)O)CC6)CSc6ccccc6)c(S(=O)(=O)C(F)(F)F)c5)cc4)CC3)c2)c(-c2ccc(Cl)cc2)n1C(C)C = 90.8
• CCN1CCN(Cc2ccc(Nc3ncc(F)c(-c4cc(F)c5nc(C)n(C(C)C)c5c4)n3)nc2)CC1 + Cc1c(S(C)(=O)=O)c(-c2cc(F)cc(N3CCN(c4ccc(NS(=O)(=O)c5ccc(NC(CCN6CCC(C(=O)OCCCP(=O)(O)O)CC6)CSc6ccccc6)c(S(=O)(=O)C(F)(F)F)c5)cc4)CC3)c2)c(-c2ccc(Cl)cc2)n1C(C)C = 76.9

Tell me viability, T/C of C#Cc1c(F)ccc2cc(O)cc(-c3ncc4c(N5CC6CCC(C5)N6)nc(OCC56CCCN5CC(F)C6)nc4c3F)c12 (stereo not drawn) + CNC(C)C(=O)NC1CN(S(=O)(=O)c2cccc(S(=O)(=O)N3CCC4CCC(C(=O)NC(c5ccccc5)c5ccccc5)N4C(=O)C(NC(=O)C(C)NC)C3)c2)CCC2CCC(C(=O)NC(c3ccccc3)c3ccccc3)N2C1=O when tested on MPNST complex spheroid with HUVEC/MSC, growth, % test/control.
76
